- targetEntity: IRAK4 (Homo sapiens, UniProt Q9NWZ3)
- Sequence (Q9NWZ3 whole entry): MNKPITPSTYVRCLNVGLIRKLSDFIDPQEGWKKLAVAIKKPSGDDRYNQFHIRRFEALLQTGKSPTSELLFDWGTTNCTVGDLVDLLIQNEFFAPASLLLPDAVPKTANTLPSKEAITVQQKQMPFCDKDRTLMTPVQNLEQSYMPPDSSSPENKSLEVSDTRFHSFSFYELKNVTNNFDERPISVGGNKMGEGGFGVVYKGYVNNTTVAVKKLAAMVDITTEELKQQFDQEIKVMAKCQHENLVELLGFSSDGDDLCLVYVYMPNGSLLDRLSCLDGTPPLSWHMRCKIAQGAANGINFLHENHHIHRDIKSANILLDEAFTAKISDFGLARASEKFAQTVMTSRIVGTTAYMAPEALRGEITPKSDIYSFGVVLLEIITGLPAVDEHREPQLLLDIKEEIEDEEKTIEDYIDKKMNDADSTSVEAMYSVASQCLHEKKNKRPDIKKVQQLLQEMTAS
- runDescription: biochemical
attributeMeasured: log10(IC50) (log10 of the value in nM)
Short version: log10 scale, IC50, nM.

Below: 3 compounds and their reported log10(IC50).
compound: CC(C)Oc1nc(C(=O)Nc2ccn(C)n2)cn2cc(C34CCC(C)(CC3)OC4)nc12
log10(IC50): 0.26

compound: CCOc1nc(C(=O)Nc2cccc(C(F)F)n2)cn2cc(C3CCCOC3)nc12 (centres unmarked)
log10(IC50): 0.34

compound: COc1cc2nc(C3CCOCC3)cn2cc1C(=O)Nc1cccc(C(F)(F)F)c1
log10(IC50): 1.41

Tell us which log10(IC50) value is on record for `CCOc1nc(C(=O)Nc2cccnc2OC)cn2cc(C3CCOCC3)nc12` 0.76

Query log10(IC50) for `Cn1ccc(NC(=O)c2cn3cc(C45COC(C)(C4)C5)nc3cc2OC2CC(C)(C)C2)n1` 0.63

Check the records and state log10(IC50) for `COc1cc2nc(C3CCOCC3)cn2cc1C(=O)Nc1cccc(C)c1Cl` 0.79

Read off the recorded log10(IC50) for `CC(C)Oc1nc2nc(C34COC(C)(C3)C4)cn2cc1C(=O)Nc1cccc2scnc12` -0.70

Dear colleague, please send me the reported log10(IC50) for `CC12CC(c3cn4cc(C(=O)Nc5cccc6ccnn56)nc(OC5CCC5)c4n3)(CO1)C2` when you can. 0.91

###

- targetEntity: IRAK4 (Homo sapiens, UniProt Q9NWZ3)
- runDescription: biochemical
- settings: IRAK4 Biochemical Assay (1 mM ATP, 2 h) IC50 (μM), 1 mM ATP, 2 h, 100 pM IRAK4
Rule: measured IC50 below 0.008 µM gets Satisfied; anything equal to or greater than 0.008 µM gets Not satisfied.

compound: CC(C)Oc1nc2nc(C34COC(C)(C3)C4)cn2cc1C(=O)Nc1cnn2cccnc12
label: Satisfied
--
compound: COc1cccc(NC(=O)c2cn3cc(C4CC5(CCOC5)C4)nc3cc2OC)n1 (stereo not shown)
label: Satisfied
--
compound: COc1cc2nc(CC3CCOCC3)cn2cc1C(=O)Nc1cccc(C(F)(F)F)n1
label: Not satisfied
--
compound: COc1cccc(NC(=O)c2cn3cc(C4CCOCC4)nc3c(OC)n2)n1
label: Not satisfied
--
compound: COc1cc2nc(C34CC(F)(C3)C4)cn2cc1C(=O)Nc1ccccn1
label: Not satisfied

Moving on to another compound below.
Is it true that IC50 reported for `CC12CC(c3cn4cc(C(=O)Nc5cccn(C(F)F)c5=O)c(OCC5(F)CCOCC5)cc4n3)(CO1)C2` is less than 0.008 µM? Satisfied

###

- targetEntity: IRAK4 (Homo sapiens, UniProt Q9NWZ3)
- runDescription: biochemical
attributeMeasured: pIC50
The value called pIC50 is obtained by taking minus log10 of the concentration in mol/L.

compound: C[C@H](Oc1cc2nc(C34COC(C)(C3)C4)cn2cc1C(=O)Nc1cccc(C(F)F)n1)C1CC1 (single isomer, unassigned)
pIC50: 9.70
//
compound: COc1cc2nc(C3CCOCC3)cn2cc1C(=O)Nc1cccc2c1CCCC2
pIC50: 7.76
//
compound: CC(C)Oc1nc2nc([C@]34CC[C@](C)(C3)OC4)cn2cc1C(=O)Nc1cnn2cccnc12 (single isomer, unassigned)
pIC50: 9.30
//
compound: COc1ncccc1NC(=O)c1cn2cc(C34COC(C)(C3)C4)nc2cc1OC(C)C
pIC50: 9.30
//
compound: CC(C)Oc1nc(C(=O)Nc2cccn(C)c2=O)cn2cc(C34CCC(C)(C3)OC4)nc12 (stereo not shown)
pIC50: 9.05

Input CC(C)Oc1nc2nc([C@@]34CC[C@@](C)(C3)OC4)cn2cc1C(=O)Nc1cccn(C)c1=O (single isomer, unassigned) , output reported pIC50. 9.30

Identify measured pIC50 associated with `COc1ncccc1NC(=O)c1cn2cc(C34CC(C#N)(C3)C4)nc2cc1OC(C)C` 9.10
